B1: VH:VL chains; a variant is named by its letters at X, in order (parent)
chain 1: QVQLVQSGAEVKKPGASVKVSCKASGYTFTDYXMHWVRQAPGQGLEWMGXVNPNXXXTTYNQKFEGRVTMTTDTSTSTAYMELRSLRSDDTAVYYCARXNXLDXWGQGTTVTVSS
chain 2: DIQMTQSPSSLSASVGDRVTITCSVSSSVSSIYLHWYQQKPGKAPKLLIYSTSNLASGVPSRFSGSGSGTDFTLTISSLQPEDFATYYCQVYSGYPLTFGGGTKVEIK

Variants of: B1
Assay: yeast display scFab, FACS + sequencing
readout: non-specific binding call

Solved entries (count: 5):
Prompt: Sample FRTRGAVV — what was its non-specific binding call?
Response: binds

Prompt: Please answer likewise for DRGRDAGA
Response: no binding

Prompt: Consider next the variant YRAAGDVA in the same way.
Response: no binding

Prompt: # iterate: VRTKADAV
Response: no binding

Prompt: Another: VTTEASLD
Response: no binding

***
Prompt: I have this variant here, YTGTSDVY , and I need its recorded non-specific binding call.
Response: no binding

Numbers sourced from the emibetuzumab library of Makowski et al. (2022).
